Attribution: paper PMC5688144

# assayed system: human La antigen (Homo sapiens, UniProt P05455, T302N)
# Construct: amino acids 100–324 of the human La antigen (plus T302N mutation); 6xHis (N); 6xHis (C); host or cells: Escherichia coli Rosetta cells
# Sequence (P05455 100-324 T302N): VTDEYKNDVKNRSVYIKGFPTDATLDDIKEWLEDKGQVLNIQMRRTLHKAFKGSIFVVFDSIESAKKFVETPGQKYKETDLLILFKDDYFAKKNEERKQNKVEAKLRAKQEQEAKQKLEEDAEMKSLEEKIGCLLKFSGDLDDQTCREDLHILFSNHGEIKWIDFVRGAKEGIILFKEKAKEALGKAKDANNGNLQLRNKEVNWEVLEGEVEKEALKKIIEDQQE
# assay text: ALARM NMR
# Format: binding
# measurement conditions: 400 μM compound; DTT present
endpoint name: ALARM NMR, (+) DTT

// known answers, use as guide
>>> endpoint_value("CCCCCCCCCCCCCCCc1cccc(O)c1C(=O)O [Compound 14, Anacardic acid]")
"Positive"
>>> endpoint_value("COc1cc(/C=C/C(=O)CC(=O)/C=C/c2ccc(O)c(OC)c2)ccc1O [Compound 11, Curcumin]")
"Negative"
>>> endpoint_value("O=c1c2cccnc2sn1Cc1ccc(C(F)(F)F)cc1 [Compound 3, PU141]")
"Negative"
>>> endpoint_value("COc1cc(/C=C/c2cc(/C=C/c3ccc(O)c(OC)c3)n(-c3ccc(C(=O)[O-])cc3)n2)ccc1O.[Na+] [Compound 17, CTK7A]")
"Positive"

QUERY: Supply ALARM NMR, (+) DTT value. Item: Cc1cc(O)cc(C)c1C=C1C(=O)N(Cc2ccccc2)C(=O)N(Cc2ccccc2)C1=O [Compound 4, EML425]
RESULT: Negative

---

# assayed system: AmpC β-lactamase (Escherichia coli)
# Construct: Recombinant E. coli AmpC (amino acids 20–377); purchased MyBioSource.com
# assay text: biochemical
# Design: species or system E. coli
# measurement conditions: 10 μM compound; ± 0.01% Triton X-100
endpoint name: AmpC aggregation counter-screen

>>> endpoint_value("CC(=O)N[C@H](CCCCNC(=O)CSCCNC(=O)CCNC(=O)C(O)C(C)(C)COP(=O)(O)OP(=O)(O)OC[C@H]1O[C@@H](n2cnc3c(N)ncnc32)[C@H](O)[C@@H]1OP(=O)(O)O)C(N)=O (stereo partly drawn)")
"Detergent-insensitive"
>>> endpoint_value("O=C(O[C@@H]1Cc2c(O)cc(O)cc2O[C@@H]1c1cc(O)c(O)c(O)c1)c1cc(O)c(O)c(O)c1 [Compound 10, (-)-Epigallocatechin gallate]")
"Detergent-insensitive"
>>> endpoint_value("CCCC1(c2ccccc2)NC(=O)N(CC(=O)N(C)Cc2c(F)cccc2Cl)C1=O (stereo not drawn)")
"Detergent-insensitive"
>>> endpoint_value("c1cc(SSc2ccns2)sn1")
"Detergent-insensitive"
>>> endpoint_value("COc1ccc(/C(Cl)=C(/C=O)c2ccc(OC)cc2)cc1")
"Detergent-insensitive"
>>> endpoint_value("O=c1c2cccnc2sn1Cc1ccc(C(F)(F)F)cc1")
"Detergent-insensitive"
>>> endpoint_value("CCCCCCCc1ccc(CCc2cccc(O)c2C(=O)O)cc1")
"Detergent-insensitive"
>>> endpoint_value("COc1ccc(S(=O)(=O)ON=C2C=C(C)C(=O)C(C)=C2)cc1")
"Detergent-insensitive"

QUERY: Supply AmpC aggregation counter-screen value. Item: C=C1C(=O)O[C@H](CCC)[C@H]1C(=O)O
RESULT: Detergent-insensitive

QUERY: Supply AmpC aggregation counter-screen value. Item: N#Cc1c2ccc(N)cc2nc2cc(N)ccc12
RESULT: Detergent-insensitive

---

# assayed system: human La antigen (Homo sapiens, UniProt P05455, T302N)
# Construct: amino acids 100–324 of the human La antigen (plus T302N mutation); 6xHis (N); 6xHis (C); host or cells: Escherichia coli Rosetta cells
# assay text: ALARM NMR
# Format: binding
# measurement conditions: 400 μM compound; with and without DTT
endpoint name: ALARM NMR interpretation

>>> endpoint_value("CCCC1(c2ccccc2)NC(=O)N(CC(=O)N(C)Cc2c(F)cccc2Cl)C1=O (stereo not shown)")
"Inert as tested"
>>> endpoint_value("Cc1cc(O)cc(C)c1C=C1C(=O)N(Cc2ccccc2)C(=O)N(Cc2ccccc2)C1=O")
"Thiol-reactive"
>>> endpoint_value("CC(=O)N[C@H](CCCCNC(=O)CSCCNC(=O)CCNC(=O)C(O)C(C)(C)COP(=O)(O)OP(=O)(O)OC[C@H]1O[C@@H](n2cnc3c(N)ncnc32)[C@H](O)[C@@H]1OP(=O)(O)O)C(N)=O (stereo partly shown)")
"Inert as tested"
>>> endpoint_value("COc1ccc(S(=O)(=O)ON=C2C=C(C)C(=O)C(C)=C2)cc1")
"Thiol-reactive"

# next compound below
QUERY: Supply ALARM NMR interpretation value. Item: Clc1ccc(-c2csc(NN=C3CCCC3)n2)cc1
RESULT: Thiol-reactive
